# method-notes: Total AUC (0 to 24 hrs) in Beagle dog at 5 mg/kg, po qd measured after 91 days
# Assay type: ADME, organism-based, Canis lupus familiaris
# experimental-parameters: in vivo, time 91 day
measure: AUC at 2184 h

query_smiles=COCCCOc1cc2c(nc1OC)-c1cc(=O)c(C(=O)O)cn1[C@H](C(C)C)C2 result_value="10500 ng·h/mL"

---

# system-tested: CYP1A2 (Homo sapiens, UniProt P05177)
# Sequence (P05177 whole entry): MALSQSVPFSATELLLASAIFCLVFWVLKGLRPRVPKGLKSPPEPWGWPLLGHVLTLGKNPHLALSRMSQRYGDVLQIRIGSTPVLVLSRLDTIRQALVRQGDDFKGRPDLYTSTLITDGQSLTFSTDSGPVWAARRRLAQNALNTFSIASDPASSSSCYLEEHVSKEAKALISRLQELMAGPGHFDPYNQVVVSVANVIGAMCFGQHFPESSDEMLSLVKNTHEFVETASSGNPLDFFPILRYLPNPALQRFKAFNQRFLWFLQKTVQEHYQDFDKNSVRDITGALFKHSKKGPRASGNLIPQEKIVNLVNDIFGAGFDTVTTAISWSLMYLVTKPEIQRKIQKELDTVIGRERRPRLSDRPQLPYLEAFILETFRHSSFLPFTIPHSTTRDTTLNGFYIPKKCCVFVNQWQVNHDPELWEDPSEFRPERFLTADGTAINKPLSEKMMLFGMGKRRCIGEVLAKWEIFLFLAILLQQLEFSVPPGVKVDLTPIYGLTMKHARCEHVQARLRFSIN
# method-notes: Inhibition of CYP1A2 in human liver microsomes using phenacetin as substrate preincubated for 30 min followed by NADPH addition measured after 12 mins by LC-MS/MS analysis
# Format: ADME, Microsome
# experimental-parameters: human, liver microsomes, probe phenacetin
measure: IC50 at 12 min

query_smiles=COCCCOc1cc2c(nc1OC)-c1cc(=O)c(C(=O)O)cn1[C@H](C(C)C)C2 system_tested="CYP1A2 (Homo sapiens, UniProt P05177)" measure="IC50 at 12 min" result_value="> 25 µM"
